System: 966289-007-R4-J1-PDC complex spheroid viability
Assay: Anticancer human tumor 966289-007-R4-J1-PDC patient-derived pancreatic adenocarcinoma cell line growth inhibition [RAS]
Conditions: curve of first compound; second compound 0.03 µM
pIC50: −log10 of the molar value.
Exercise: state measured pIC50 for each of the molecules provided.

Short answer for CC(=O)OC12COC1CC(O)C1(C)C(=O)C(O)C3=C(C)C(OC(=O)C(O)C(NC(=O)OC(C)(C)C)c4ccccc4)CC(O)(C(OC(=O)c4ccccc4)C21)C3(C)C (stereo not drawn) + CCn1c(-c2cccnc2C(C)OC)c2c3cc(ccc31)N1CCOC(CC(NC(=O)C(C(C)C)N(C)C(=O)C3(F)CCN(C(=O)C#CC(C)(C)N(C)C)CC3)C(=O)N3CCCC(N3)C(=O)OCC(C)(C)C2)C1 : pIC50 was > 7.50

pIC50 measured on CC(=O)OC12COC1CC(O)C1(C)C(=O)C(O)C3=C(C)C(OC(=O)C(O)C(NC(=O)OC(C)(C)C)c4ccccc4)CC(O)(C(OC(=O)c4ccccc4)C21)C3(C)C (stereo not drawn) + CCn1c(-c2cc(N3CCN(C)CC3)cnc2C(C)OC)c2c3cc(ccc31)-c1csc(n1)CC(NC(=O)C1CC1C)C(=O)N1CCCC(N1)C(=O)OCC(C)(C)C2 = > 7.50

Given item CC1(C)CCC(Nc2ncc(C(F)(F)F)c(-c3c[nH]c4c(P(C)(C)=O)c(C#N)ccc34)n2)CN1 (stereo not drawn) + CCn1c(-c2cc(N3CCN(C)CC3)cnc2C(C)OC)c2c3cc(ccc31)-c1csc(n1)CC(NC(=O)C1CC1C)C(=O)N1CCCC(N1)C(=O)OCC(C)(C)C2 , the value recorded as its pIC50 is 8.12

---

System: 966289-007-R4-J1-PDC complex spheroid viability
Assay: Anticancer human tumor 966289-007-R4-J1-PDC cell line growth inhibition [RAS];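 note: spheroids exposed to agents for one week before readout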;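 for viability, T/C: percent viability relative to DMSO vehicle control wells as 100%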
Settings: second compound 0.003 µM; first compound 0.316 µM; stronger effect = lower value
Response field label: string, one of class 1 (viability, T/C strictly below 90%) or class 0.

Ask | Is viability, T/C of Nc1ccn(C2OC(CO)C(O)C2(F)F)c(=O)n1 (stereo not drawn) + CCn1c(-c2cccnc2C(C)OC)c2c3cc(ccc31)N1CCOC(CC(NC(=O)C(C(C)C)N(C)C(=O)C3(F)CCN(C(=O)C#CC(C)(C)N(C)C)CC3)C(=O)N3CCCC(N3)C(=O)OCC(C)(C)C2)C1 strictly below 90%?
Reply | class 1

Ask | # TODO verify viability, T/C < 90% strictly for this compound: C=CC(=O)N1CCN(c2nc(OCC3CCCN3C)nc3c(F)c(-c4nc(N)cc(C)c4C(F)(F)F)c(Cl)cc23)C(C)C1 (stereo not drawn) + CCn1c(-c2cccnc2C(C)OC)c2c3cc(ccc31)N1CCOC(CC(NC(=O)C(C(C)C)N(C)C(=O)C3(F)CCN(C(=O)C#CC(C)(C)N(C)C)CC3)C(=O)N3CCCC(N3)C(=O)OCC(C)(C)C2)C1
Reply | class 1

Ask | is_below(viability, T/C, 90%) for C=CC(=O)N1CCN(c2nc(OCC3CCCN3C)nc3c(F)c(-c4nc(N)cc(C)c4C(F)(F)F)c(Cl)cc23)C(C)C1 (stereo not drawn) + CCn1c(-c2cc(N3CCN(C)CC3)cnc2C(C)OC)c2c3cc(ccc31)-c1csc(n1)CC(NC(=O)C1CC1C)C(=O)N1CCCC(N1)C(=O)OCC(C)(C)C2 ?
Reply | class 1

Ask | Is 90% strictly greater than the compound's reported viability, T/C? compound: CC1(O)CCCC1n1c(=O)c(C(F)F)cc2cnc(NC3CCN(S(C)(=O)=O)CC3)nc21 (stereo not drawn) + CCn1c(-c2cccnc2C(C)OC)c2c3cc(ccc31)N1CCOC(CC(NC(=O)C(C(C)C)N(C)C(=O)C3(F)CCN(C(=O)C#CC(C)(C)N(C)C)CC3)C(=O)N3CCCC(N3)C(=O)OCC(C)(C)C2)C1
Reply | class 1

Ask | Please check: viability, T/C for CCN1CCN(Cc2ccc(Nc3ncc(F)c(-c4cc(F)c5nc(C)n(C(C)C)c5c4)n3)nc2)CC1 + CCn1c(-c2cccnc2C(C)OC)c2c3cc(ccc31)N1CCOC(CC(NC(=O)C(C(C)C)N(C)C(=O)C3(F)CCN(C(=O)C#CC(C)(C)N(C)C)CC3)C(=O)N3CCCC(N3)C(=O)OCC(C)(C)C2)C1 , strictly under 90% or not?
Reply | class 0

Ask | Strictly below 90% in viability, T/C? CCC(CC)c1cc(NC2CCC(N)C2)n2nccc2n1 (stereo not drawn) + CCn1c(-c2cccnc2C(C)OC)c2c3cc(ccc31)N1CCOC(CC(NC(=O)C(C(C)C)N(C)C(=O)C3(F)CCN(C(=O)C#CC(C)(C)N(C)C)CC3)C(=O)N3CCCC(N3)C(=O)OCC(C)(C)C2)C1
Reply | class 1

---

Please provide measured viability, T/C for the entries that follow.
System: 966289-007-R4-J1-PDC complex spheroid viability
Test: Anticancer human tumor 966289-007-R4-J1-PDC cell line growth inhibition [RAS];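 note: spheroids exposed to agents for one week before readout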;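 for viability, T/C: percent viability relative to DMSO vehicle control wells as 100%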
Conditions: second compound 0.0949 µM; first compound 0.01 µM; stronger effect = lower value
Lab book: enter the figure in %, no units written.

Reported viability, T/C ( Nc1ccn(C2OC(CO)C(O)C2(F)F)c(=O)n1 (centres undefined) + CCn1c(-c2cc(N3CCN(C)CC3)cnc2C(C)OC)c2c3cc(ccc31)-c1csc(n1)CC(NC(=O)C1CC1C)C(=O)N1CCCC(N1)C(=O)OCC(C)(C)C2 ) = 28.2

Short answer for CC(C)n1nc(-c2ccc3oc(N)nc3c2)c2c(N)ncnc21 + CCn1c(-c2cc(N3CCN(C)CC3)cnc2C(C)OC)c2c3cc(ccc31)-c1csc(n1)CC(NC(=O)C1CC1C)C(=O)N1CCCC(N1)C(=O)OCC(C)(C)C2 : viability, T/C was 112

Documented viability, T/C of CCN1CCN(Cc2ccc(Nc3ncc(F)c(-c4cc(F)c5nc(C)n(C(C)C)c5c4)n3)nc2)CC1 + CCn1c(-c2cccnc2C(C)OC)c2c3cc(ccc31)N1CCOC(CC(NC(=O)C(C(C)C)N(C)C(=O)C3(F)CCN(C(=O)C#CC(C)(C)N(C)C)CC3)C(=O)N3CCCC(N3)C(=O)OCC(C)(C)C2)C1 : 99.6

viability, T/C reading for C=CC(=O)Nc1cc(Nc2nccc(-c3cn(C)c4ccccc34)n2)c(OC)cc1N(C)CCN(C)C + CCn1c(-c2cc(N3CCN(C)CC3)cnc2C(C)OC)c2c3cc(ccc31)-c1csc(n1)CC(NC(=O)C1CC1C)C(=O)N1CCCC(N1)C(=O)OCC(C)(C)C2 : 111

---

System: 966289-007-R4-J1-PDC complex spheroid viability
Assay: Anticancer human tumor 966289-007-R4-J1-PDC cell line growth inhibition [RAS];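 note: spheroids exposed to agents for one week before readout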
Details: curve of first compound; second compound 0.03 µM
Assay Metric: IC50 (nM)
Express your answer in nM, writing the number without its unit.

IC50 reading for CCc1c2c(nc3ccc(O)cc13)-c1cc3c(c(=O)n1C2)COC(=O)[C@]3(O)CC + CCn1c(-c2cc(N3CCN(C)CC3)cnc2C(C)OC)c2c3cc(ccc31)-c1csc(n1)CC(NC(=O)C1CC1C)C(=O)N1CCCC(N1)C(=O)OCC(C)(C)C2 : 1.14

The recorded IC50 for CC(C)NCC(C(=O)N1CCN(c2ncnc3c2C(C)CC3O)CC1)c1ccc(Cl)cc1 (stereo not drawn) + CCn1c(-c2cccnc2C(C)OC)c2c3cc(ccc31)N1CCOC(CC(NC(=O)C(C(C)C)N(C)C(=O)C3(F)CCN(C(=O)C#CC(C)(C)N(C)C)CC3)C(=O)N3CCCC(N3)C(=O)OCC(C)(C)C2)C1 is 6160

Consider CC(C)n1nc(-c2ccc3oc(N)nc3c2)c2c(N)ncnc21 + CCn1c(-c2cc(N3CCN(C)CC3)cnc2C(C)OC)c2c3cc(ccc31)-c1csc(n1)CC(NC(=O)C1CC1C)C(=O)N1CCCC(N1)C(=O)OCC(C)(C)C2 . Its measured IC50 is 25.6

Summary for this compound, CCc1c2c(nc3ccc(O)cc13)-c1cc3c(c(=O)n1C2)COC(=O)[C@]3(O)CC + CCn1c(-c2cccnc2C(C)OC)c2c3cc(ccc31)N1CCOC(CC(NC(=O)C(C(C)C)N(C)C(=O)C3(F)CCN(C(=O)C#CC(C)(C)N(C)C)CC3)C(=O)N3CCCC(N3)C(=O)OCC(C)(C)C2)C1 : IC50 is 1.18

Query CC(C)n1nc(-c2ccc3oc(N)nc3c2)c2c(N)ncnc21 + CCn1c(-c2cccnc2C(C)OC)c2c3cc(ccc31)N1CCOC(CC(NC(=O)C(C(C)C)N(C)C(=O)C3(F)CCN(C(=O)C#CC(C)(C)N(C)C)CC3)C(=O)N3CCCC(N3)C(=O)OCC(C)(C)C2)C1 yields IC50 of 31.7

# compound CC(C)NCC(C(=O)N1CCN(c2ncnc3c2C(C)CC3O)CC1)c1ccc(Cl)cc1 (stereo not drawn) + CCn1c(-c2cc(N3CCN(C)CC3)cnc2C(C)OC)c2c3cc(ccc31)-c1csc(n1)CC(NC(=O)C1CC1C)C(=O)N1CCCC(N1)C(=O)OCC(C)(C)C2 ; its IC50 = 4790
